The reader will find reported MFI ratio to WT (ΔWT) values listed item by item below.
- system-name: T1, human CTLA-4, full-length, expressed on transfected Expi293 cells (human, UniProt P16410 36-223)
- T1 construct: whole, on cells
- T1 sequence (P16410 36-223): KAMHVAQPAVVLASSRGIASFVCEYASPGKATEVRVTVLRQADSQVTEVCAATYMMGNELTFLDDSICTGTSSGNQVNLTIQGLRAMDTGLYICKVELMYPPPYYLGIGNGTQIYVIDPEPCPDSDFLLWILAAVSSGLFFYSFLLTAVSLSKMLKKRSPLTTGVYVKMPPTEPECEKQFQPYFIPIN
- test-name: flow cytometry, 100 nM, Expi293 cells with human CTLA-4
Field format: number, assumed fold, no unit text.

Example cases with answers are listed next.
INSERT INTO measurements (binder, endpoint_unit, obs_value) VALUES
  ('variant ICOSL IgV-Fc fusion N52L/N57H/Q100R (Fc fusion) DTQEKEVRAMVGSDVELSCACPEGSRFDLNDVYVYWQTSESKTVVTYHIPQLSSLEHVDSRYRNRALMSPAGMLRGDFSLRLFNVTPQDEQKFHCLVLSRSLGFQEVLSVEVTLHVAANFSVGSGGGGSEPKSSDKTHTCPPCPAPEAEGAPSVFLFPPKPKDTLMISRTPEVTCVVVDVSHEDPEVKFNWYVDGVEVHNAKTKPREEQYNSTYRVVSVLTVLHQDWLNGKEYKCKVSNKALPAPIEKTISKAKGQPREPQVYTLPPSREEMTKNQVSLTCLVKGFYPSDIAVEWESNGQPENNYKTTPPVLDSDGSFFLYSKLTVDKSRWQQGNVFSCSVMHEALHNHYTQKSLSLSPG', 'fold', 1.07),
  ('variant ICOSL IgV-Fc fusion N52Q/N57F (Fc fusion) DTQEKEVRAMVGSDVELSCACPEGSRFDLNDVYVYWQTSESKTVVTYHIPQQSSLEFVDSRYRNRALMSPAGMLRGDFSLRLFNVTPQDEQKFHCLVLSQSLGFQEVLSVEVTLHVAANFSVGSGGGGSEPKSSDKTHTCPPCPAPEAEGAPSVFLFPPKPKDTLMISRTPEVTCVVVDVSHEDPEVKFNWYVDGVEVHNAKTKPREEQYNSTYRVVSVLTVLHQDWLNGKEYKCKVSNKALPAPIEKTISKAKGQPREPQVYTLPPSREEMTKNQVSLTCLVKGFYPSDIAVEWESNGQPENNYKTTPPVLDSDGSFFLYSKLTVDKSRWQQGNVFSCSVMHEALHNHYTQKSLSLSPG', 'fold', 1.11);

Kindly note the recorded MFI ratio to WT (ΔWT) for variant ICOSL ECD-Fc fusion, full length N52H/N57Y/Q100R/F172S (Fc fusion, not shown: a dimerising Fc or GST) DTQEKEVRAMVGSDVELSCACPEGSRFDLNDVYVYWQTSESKTVVTYHIPQHSSLEYVDSRYRNRALMSPAGMLRGDFSLRLFNVTPQDEQKFHCLVLSRSLGFQEVLSVEVTLHVAANFSVPVVSAPHSPSQDELTFTCTSINGYPRPNVYWINKTDNSLLDQALQNDTVSLNMRGLYDVVSVLRIARTPSVNIGCCIENVLLQQNLTVGSQTGNDIGERDKITENPVSTGEKNAAT , which is 1.83
